- Measurement conditions: 298.15 K; 101.33 kPa; Liquid
Readout label: mass density (kg/m3)
Dear colleague, please return just the value in kg/m3, with no unit written.

Check out these entries, answers already filled in.
{"Mol smiles": "CCCCO", "mass density (kg/m3)": 805.767}
{"Mol smiles": "CCCCCCCO", "mass density (kg/m3)": 818.746}
{"Mol smiles": "CCCCCCCCCCO", "mass density (kg/m3)": 826.421}
{"Mol smiles": "CCCCCCCCCO", "mass density (kg/m3)": 824.263}
{"Mol smiles": "CCCO", "mass density (kg/m3)": 799.564}

// sample CCCCCCO , its mass density was 815.275

Briefly, mass density measured for CCO : 785.055

Looking up CO , I see its mass density listed as 786.538

Lookup result for CCCCCO ; measured mass density: 810.883

Lab book: mass density of CCCCCCCCCCCC noted as 745.435

The compound identified as CCCCCCCCO registered its mass density at 821.694
